Every entry's value here was drawn from ChEMBL document CHEMBL1136698.

molecular target: UniProtKB P41968; assay: Inhibitory activity against hMC3R (human melanocortin receptor) using [125I]-[Nle4] alpha-MSH as radioligand
Sequence (P41968 whole entry): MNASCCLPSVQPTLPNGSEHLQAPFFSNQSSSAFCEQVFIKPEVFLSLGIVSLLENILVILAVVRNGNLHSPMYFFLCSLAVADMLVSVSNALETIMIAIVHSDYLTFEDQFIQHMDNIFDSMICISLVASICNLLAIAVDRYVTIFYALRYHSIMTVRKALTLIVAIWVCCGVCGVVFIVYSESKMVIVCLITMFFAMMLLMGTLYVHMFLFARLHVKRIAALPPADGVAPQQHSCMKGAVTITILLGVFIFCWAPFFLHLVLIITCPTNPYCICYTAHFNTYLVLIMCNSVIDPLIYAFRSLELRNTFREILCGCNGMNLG
parameter measured: IC50 (µM)
Use µM as the unit, but write only the number.

Provide one value: measured IC50 of "C[C@H](c1ccccc1)N(CC(N)=O)C(=O)CN(C(=O)CNCCCNC(=N)N)C(c1ccccc1)c1ccccc1"
48

---

target: Melanocortin receptor 4 (Homo sapiens, UniProt P32245); assay: Inhibitory activity against hMC4R (human melanocortin receptor) using [125I]-[Nle4] alpha-MSH as radioligand
Sequence (P32245 whole entry): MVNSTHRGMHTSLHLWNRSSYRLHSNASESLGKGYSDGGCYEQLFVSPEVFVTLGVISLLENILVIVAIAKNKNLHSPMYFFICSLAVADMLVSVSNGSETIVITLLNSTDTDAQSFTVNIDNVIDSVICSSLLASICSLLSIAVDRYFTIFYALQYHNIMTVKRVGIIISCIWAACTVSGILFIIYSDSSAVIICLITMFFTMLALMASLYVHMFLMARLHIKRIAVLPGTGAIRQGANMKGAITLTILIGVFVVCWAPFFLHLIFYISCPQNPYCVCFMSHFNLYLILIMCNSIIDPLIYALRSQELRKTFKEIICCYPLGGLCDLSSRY
parameter measured: IC50 (µM)
Use µM as the unit, but write only the number.

Provide one value: measured IC50 of "C[C@H](c1ccccc1)N(CC(N)=O)C(=O)CN(C(=O)CNCCCNC(=N)N)C(c1ccccc1)c1ccccc1"
3.1

---

biological target: Melanocyte-stimulating hormone receptor (Homo sapiens, UniProt Q01726); experiment: Inhibitory activity against hMC1R (human melanocortin receptor) using [125I]- ASIP Y radioligand
Sequence (Q01726 whole entry): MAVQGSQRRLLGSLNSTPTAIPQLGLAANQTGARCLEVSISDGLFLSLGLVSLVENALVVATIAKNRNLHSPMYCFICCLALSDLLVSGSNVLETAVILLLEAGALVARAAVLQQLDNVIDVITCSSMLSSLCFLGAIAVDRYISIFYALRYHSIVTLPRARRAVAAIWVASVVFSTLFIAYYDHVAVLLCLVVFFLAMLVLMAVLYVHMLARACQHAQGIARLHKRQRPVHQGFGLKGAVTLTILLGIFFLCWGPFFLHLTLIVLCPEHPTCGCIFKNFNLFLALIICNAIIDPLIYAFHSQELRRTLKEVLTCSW
parameter measured: IC50
Give the value; after it, write the unit.

Provide one value: measured IC50 of "C[C@H](c1ccccc1)N(CC(N)=O)C(=O)CN(C(=O)CNCCCNC(=N)N)C(c1ccccc1)c1ccccc1"
25 µM

---

target: Melanocortin receptor 4 (Homo sapiens, UniProt P32245); experiment: Inhibitory activity against hMC4R (human melanocortin receptor) using I-AGRP as radioligand
parameter measured: pIC50
Scale note: pIC50 = -log10(concentration in M).

Provide one value: measured pIC50 of "C[C@H](c1ccccc1)N(CC(N)=O)C(=O)CN(C(=O)CNCCCNC(=N)N)C(c1ccccc1)c1ccccc1"
5.72

---

Give measured IC50 for each item. Keep answers brief.
biological target: Melanocortin receptor 4 (Homo sapiens, UniProt P32245); assay: Binding affinity against human melanocortin 4 receptor (hMC4R) using [125I]- ([Nle4]alpha-MSH) as radioligand

Provide one value: measured IC50 of "C[C@H](c1ccccc1)N(CC(N)=O)C(=O)CN(C(=O)CNCCCNC(=N)N)C(c1ccccc1)c1ccccc1"
3.1 µM

Provide one value: measured IC50 of "NC(=O)CN(Cc1ccccc1)C(=O)CN(Cc1ccccc1)C(=O)CNCCCN=C(N)N"
> 100 µM

Provide one value: measured IC50 of "C[C@H](c1ccccc1)N(CC(N)=O)C(=O)CN(Cc1ccccc1)C(=O)CNCCCN=C(N)N"
> 100 µM

Provide one value: measured IC50 of "CC(C)(C(N)=O)N(Cc1ccccc1)C(=O)CN(CCc1ccccc1)C(=O)CNCCCN=C(N)N"
> 100 µM

---

biological target: UniProt P32245; assay: Binding affinity against human melanocortin 4 receptor (hMC4R) using [125I]- agouti related protein (AGRP) as radioligand
parameter measured: IC50

Provide one value: measured IC50 of "NC(=O)CN(Cc1ccccc1)C(=O)CN(Cc1ccccc1)C(=O)CNCCCN=C(N)N"
> 100 µM

Provide one value: measured IC50 of "C[C@H](c1ccccc1)N(CC(N)=O)C(=O)CN(C(=O)CNCCCNC(=N)N)C(c1ccccc1)c1ccccc1"
1.9 µM

Provide one value: measured IC50 of "C[C@H](c1ccccc1)N(CC(N)=O)C(=O)CN(Cc1ccccc1)C(=O)CNCCCN=C(N)N"
> 100 µM

---

biological target: Melanocyte-stimulating hormone receptor (Homo sapiens, UniProt Q01726); assay: Inhibitory activity against hMC1R (human melanocortin receptor) using [125I]-[Nle4] alpha-MSH as radioligand
parameter measured: IC50 (µM)
Use µM as the unit, but write only the number.

Provide one value: measured IC50 of "C[C@H](c1ccccc1)N(CC(N)=O)C(=O)CN(C(=O)CNCCCNC(=N)N)C(c1ccccc1)c1ccccc1"
9.1
